# Test method notes: Lethal dose was measured in mice 0.5 hr post intraperitoneal administration
# Format: toxicity, organism-based
# Stated conditions: mouse, in vivo, ip
Property: LD50 at 0.5 h (mg/kg)
Response body: numeric value in mg/kg, unit text excluded.

Below are worked cases with known answers.
Molecule	LD50 at 0.5 h, mg/kg
CC1Cc2cccc(-c3ccccc3)c2CN1Cc1ccccc1.Cl (configuration not stated)	227
COc1ccccc1-c1cccc2c1CNCC2.Cl	81
Cl.c1ccc(-c2cccc3c2CNCC3)cc1	82
COc1cccc(-c2cccc3c2CN(C)CC3)c1.Cl	156
COc1ccccc1-c1cccc2c1CN(C)CC2.Cl	81
Cl.c1ccc(CN2CCc3cccc(-c4ccccc4)c3C2)cc1	158

// switching to the query molecule
## Task Look up and report measured LD50 at 0.5 h for this entry: CC1Cc2cccc(-c3ccccc3)c2CN1.Cl (configuration not stated)
## Result 146
